FYI, the data here is from ChEMBL document CHEMBL1799963.

# Test system: RAW264.7
# protocol-notes: Inhibition of RANKL-induced osteoclastogenesis in mouse RAW264.7 cells assessed as decrease in TRAP-positive cells after 1 hr by microplate reader assay
# Type: functional, cell-based
# experimental-context: RAW264.7, 1 h
Assign IC50 to each entry below.
Give bare numbers, in µM.

For each of the compounds below, note its IC50.
1. CC1(C)Oc2cc(O)ccc2C2C1=CCn1c(=O)n(-c3ccc(C(C)(C)C)cc3)c(=O)n12 (stereo not given)
2. CC1(C)Oc2cc(O)ccc2C2C1=CCn1c(=O)n(-c3ccccc3)c(=O)n12 (stereo not given)
3. CC1(C)Oc2cc(O)ccc2C2C1=CCn1c(=O)n(-c3ccc(F)cc3)c(=O)n12 (stereo not given)
4. Cc1ccc(-n2c(=O)n3n(c2=O)C2C(=CC3)C(C)(C)Oc3cc(O)ccc32)cc1 (stereo not given)
5. O=c1n(-c2ccccc2)c(=O)n2n1CC=C1C2c2ccc(O)cc2OC12CCCC2 (stereo not given)

[6.94, 7.07, 8.08, 7.97, 5.09]

----------
# protocol-notes: Cytotoxicity against mouse RAW264.7 cells assessed as cell viability at 30 uM after day 1 by CCK-8 assay
# Format: cell-based
# experimental-context: read-out: Activity
assay-endpoint: viability at 1 day, 30 µM (%)
One number for each entry, in %.

O=c1n(-c2ccccc2)c(=O)n2n1CC=C1C2c2ccc(O)cc2OC12CCCC2 (stereo not given) ... 77.8
CC1(C)Oc2cc(O)ccc2C2C1=CCn1c(=O)n(-c3ccc(C(C)(C)C)cc3)c(=O)n12 (stereo not given) ... 79.7
CC1(C)Oc2cc(O)ccc2C2C1=CCn1c(=O)n(-c3ccccc3)c(=O)n12 (stereo not given) ... 85.9
CC1(C)Oc2cc(O)ccc2C2C1=CCn1c(=O)n(-c3ccc(F)cc3)c(=O)n12 (stereo not given) ... 99

Lab note: next compound to report on.
What does the record list as viability at 1 day, 30 µM for Cc1ccc(-n2c(=O)n3n(c2=O)C2C(=CC3)C(C)(C)Oc3cc(O)ccc32)cc1 (stereo not given) ?
100

----------
# protocol-notes: Cytotoxicity against mouse RAW264.7 cells assessed as cell viability at 30 uM after day 4 by CCK-8 assay
# Type: cell-based
# experimental-context: read-out: Activity
Assign viability at 4 day, 30 µM to each entry below.
Give bare numbers, in %.

Cc1ccc(-n2c(=O)n3n(c2=O)C2C(=CC3)C(C)(C)Oc3cc(O)ccc32)cc1 (stereo not given) ... 86.9

For each of the molecules below, note its viability at 4 day, 30 µM.
1. CC1(C)Oc2cc(O)ccc2C2C1=CCn1c(=O)n(-c3ccc(C(C)(C)C)cc3)c(=O)n12 (stereo not given)
2. O=c1n(-c2ccccc2)c(=O)n2n1CC=C1C2c2ccc(O)cc2OC12CCCC2 (stereo not given)
3. CC1(C)Oc2cc(O)ccc2C2C1=CCn1c(=O)n(-c3ccccc3)c(=O)n12 (stereo not given)
4. CC1(C)Oc2cc(O)ccc2C2C1=CCn1c(=O)n(-c3ccc(F)cc3)c(=O)n12 (stereo not given)

73.4
46
74
80.7
